Test system: DeltatarO mutant
test summary: S. aureus survival, RN4220 and DeltatarO strains – OD600, teichoic acid synthesis inhibitors, primary screen (AID 463173)
recorded conditions: S. aureus RN4220 wild type/DeltatarO growth, OD600, 18 h, hits give low values, screened at 18.75 µg/mL (by protocol)
Hit rate of the full screen: of about 52,000 compounds, about 4,300 (8.3%) were called active. What follows is part of a selection rich in actives, with near analogues and random picks from the rest.
Would you mind classing the entries by survival? Ranges: bin 1: < 60%; bin 2: ≥ 60% and < 80%; bin 3: ≥ 80%

Check out these entries, answers already filled in.
- CCCCCOc1ccc(C(=O)CCN2CCOCC2)cc1: bin 3
- CC(C)(C)OC(=O)N1CCC(c2c(C(=O)NC3CCN(Cc4ccccc4)CC3)cnn2-c2ccc(F)cc2F)CC1: bin 1
- COCCCN1C(=O)c2oc3ccccc3c(=O)c2C12C(=O)N(C)c1ccccc12 (configuration not stated): bin 2
- CCOc1ccccc1CNC(=O)c1ccc2nc(Cc3ccc(OC)cc3)oc2c1: bin 2
- Cc1ccc(-n2ncc(C(=O)NCCCN3CCCCC3)c2C2CCN(C(=O)OC(C)(C)C)CC2)c(C)c1: bin 1
- CCN1C(=O)C2(c3ccccc31)c1c(oc3ccc(C)cc3c1=O)C(=O)N2CCCOC(C)C (configuration not stated): bin 1
- CCOC(=O)N1CCC(NC(=O)c2cnn(-c3ccc(F)cc3F)c2C2CCN(C(=O)OC(C)(C)C)CC2)CC1: bin 2
- CCOc1ccc(NC(=O)CC2C(=O)N(c3ccc(OC)cc3)C(=O)N2C2CCCCC2)cc1 (configuration not stated): bin 3

Returns: class label. Input: `Cc1ccccc1OCC(=O)N1CCC(c2nc3ccccc3s2)CC1`
bin 1

Could you tell me which band COCCN1C(=O)c2oc3ccc(C)cc3c(=O)c2C12C(=O)N(C)c1ccccc12 (configuration not stated) belongs to?
bin 1

Quick check: band for `CCC(CC)C(=O)OCc1cc(=O)n2nc(C3CC3)sc2n1`
bin 2

Kindly state the category for this molecule: `COc1cc(C(=O)Nc2ccc(Cl)c(-c3nc4ncccc4o3)c2)cc(OC)c1OC`
bin 3

Category of `Cc1cc(C)cc(OCC(=O)N2CCC(c3nc4ccccc4s3)CC2)c1` , please.
bin 3

Place this molecule in its band: CCN1C(=O)C2(c3ccccc31)c1c(oc3ccc(F)cc3c1=O)C(=O)N2CCCOC (configuration not stated)
bin 2

Exam item: assign `Cc1nn2c(=O)cc(COc3ccc(/C=C(\C#N)C(=O)Nc4ccccc4)cc3Cl)nc2s1` to the correct category.
bin 1

Categorize the following entry: `Cc1ccc(NC(=O)Cn2c(=O)n(Cc3ccc4c(c3)OCO4)c(=O)c3ccc(C(=O)NC4CCCCC4)cc32)c(C)c1`
bin 3

Please report the category associated with CCCN1C(=O)C2(c3ccccc31)c1c(oc3cc(C)c(C)cc3c1=O)C(=O)N2CCCOC (configuration not stated) , nothing else.
bin 1

Note: place this molecule into its band. Item: `Fc1ccc(-n2ncc3c(Nc4cccc(Cl)c4)ncnc32)cc1`
bin 2

Sort into band: `CCCCOC(=O)c1ccc(NC(=O)c2ccc3c(c2)CCN3S(C)(=O)=O)cc1`
bin 3

Just checking, what class would you give `COc1cccc(CNC(=O)C2CCN(c3ncnc4c3nc3n4CCCCC3)CC2)c1` here?
bin 3

Input `O=C(NCc1ccccc1)c1cccn1-c1nnc(N2CCCC2)s1` ; output its category
bin 1

meta.source: PubChem BioAssay AID463173
